system_under_test: Human Rheumatoid Synovial Collagenase (Homo sapiens, UniProt P03956)
Construct: Human Rheumatoid Synovial Collagenase; from tissue; host or cells: human rheumatoid synovium (from the name only; the preparation is not described)
Sequence (P03956 100-469): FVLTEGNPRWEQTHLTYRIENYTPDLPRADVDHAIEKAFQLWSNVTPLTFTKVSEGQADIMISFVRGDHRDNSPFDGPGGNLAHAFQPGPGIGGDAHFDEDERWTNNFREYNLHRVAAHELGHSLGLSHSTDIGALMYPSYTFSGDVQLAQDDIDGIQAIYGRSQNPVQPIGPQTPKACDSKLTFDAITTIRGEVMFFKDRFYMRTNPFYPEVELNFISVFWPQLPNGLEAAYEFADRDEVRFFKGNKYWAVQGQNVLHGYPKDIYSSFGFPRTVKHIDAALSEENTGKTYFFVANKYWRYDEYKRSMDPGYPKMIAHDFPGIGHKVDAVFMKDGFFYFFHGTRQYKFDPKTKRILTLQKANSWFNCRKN
experimental_details: Collagenase inhibition, procedure of Cawston and Barrett (acetyl 14C collagen hydrolysis)
Type: biochemical
measurement_conditions: inhibitor concentration effecting 50% inhibition; 37° C., 16 hours, native acetyl 14C collagen, Tris HCl-CaCl2 pH 7.6
Experimental: This was determined following the procedure of Cawston and Barrett, Anal. Biochem., 99, 340-345 (1979) whereby the 1 mM of the inhibitor being tested or dilutions thereof are incubated at 37° C. for 16 hours with native collagen and collagenase (buffered with Tris HCl--CaCl2; pH 7.6). The collagen is acetyl ^14 C collagen. The samples are centrifuged to sediment undigested collagen and an aliquot of the radiactive supernatant removed for assay on a scintillation counter as a measure of hydrolysis. […]
outcome_measure: IC50 (µM)
Give bare numbers, in µM.

# IC50 lookup, item CCCCNC(=O)[C@H](C)NC(=O)[C@H](CC(C)(C)C)N[C@H](C)C(=O)O
25
